clearance for assorted compounds
MEASUREMENT_DESCRIPTION: Clearance in Beagle dog at 0.5 mg/kg, iv or 1 mg/kg, po
Assay type: ADME, organism-based, Canis lupus familiaris
CONDITION_SET: in vivo
Could you give the number and then its unit, please?

# count of solved cases: 3
[[record]]
compound = "N#Cc1cccc2c1[C@]1(CC2)NC(=O)c2c3c(c(O)c(=O)n21)C(=O)N(Cc1ccc(F)c(Cl)c1)CC3"
reported_measurement = "2.4 mL/min/kg"

[[record]]
compound = "O=C1c2c(c3n(c(=O)c2O)[C@@H](C2CC2)N(C2CC2)C3=O)CCN1Cc1ccc(F)c(Cl)c1"
reported_measurement = "1.4 mL/min/kg"

[[record]]
compound = "O=C1N[C@]2(CC[C@H]3C[C@H]32)n2c1c1c(c(O)c2=O)C(=O)N(Cc2ccc(F)c(Cl)c2)CC1"
reported_measurement = "0.12 mL/min/kg"


Data request: What value of clearance has been recorded for this entry: C[C@H](O)CN1C(=O)c2c3c(c(O)c(=O)n2[C@@]12CC[C@H]1C[C@H]12)C(=O)N(Cc1ccc(F)c(Cl)c1)CC3
Data returned: 2.9 mL/min/kg

Data request: Any idea what its clearance is? The compound is O=C1c2c(c3n(c(=O)c2O)C2(CCC4CC42)N(CCN2C(=O)CCC2=O)C3=O)CCN1Cc1ccc(F)c(Cl)c1 (stereo not given)
Data returned: 7.3 mL/min/kg

====

MEASUREMENT_DESCRIPTION: Aqueous solubility of the compound at pH 2
Format: physicochemical
READOUT_TYPE: solubility (µM)
Lab book: enter the figure in µM, no units written.

[[record]]
molecule = "COCC(O)CN1C(=O)c2c3c(c(O)c(=O)n2C12CCC1CC12)C(=O)N(Cc1ccc(F)c(Cl)c1)CC3 (stereo not drawn)"
unit = "µM"
reported_measurement = 157

[[record]]
molecule = "CN1CC(=O)N(CCN2C(=O)c3c4c(c(O)c(=O)n3C23CCC2CC23)C(=O)N(Cc2ccc(F)c(Cl)c2)CC4)C1=O (stereo not drawn)"
unit = "µM"
reported_measurement = 136

[[record]]
molecule = "O=C1N[C@@]2(CC[C@@H]3C[C@@H]32)n2c1c1c(c(O)c2=O)C(=O)N(Cc2ccc(F)c(Cl)c2)CC1"
unit = "µM"
reported_measurement = 49

[[record]]
molecule = "O=C(CN1C(=O)c2c3c(c(O)c(=O)n2C12CCC1CC12)C(=O)N(Cc1ccc(F)c(Cl)c1)CC3)N1CCOCC1 (stereo not drawn)"
unit = "µM"
reported_measurement = 151

[[record]]
molecule = "N#Cc1cccc2c1[C@]1(CC2)NC(=O)c2c3c(c(O)c(=O)n21)C(=O)N(Cc1ccc(F)c(Cl)c1)CC3"
unit = "µM"
reported_measurement = 8

[[record]]
molecule = "O=C1c2c(c3n(c(=O)c2O)[C@@H](C2CC2)N(C2CC2)C3=O)CCN1Cc1ccc(F)c(Cl)c1"
unit = "µM"
reported_measurement = 40


Consider the additional molecule presented here.
Data request: Name the recorded solubility for O=C1c2c(c3n(c(=O)c2O)C2(CCC4CC42)N(CCN2CCCS2(=O)=O)C3=O)CCN1Cc1ccc(F)c(Cl)c1 (stereo not drawn) .
Data returned: 11

====

MEASUREMENT_DESCRIPTION: Half life in Beagle dog at 0.5 mg/kg, iv or 1 mg/kg, po
Type: ADME, organism-based, Canis lupus familiaris
CONDITION_SET: in vivo
half-life under 10 h gets T, anything at or over 10 h gets F.

[[record]]
compound = "O=C1N[C@]2(CC[C@H]3C[C@H]32)n2c1c1c(c(O)c2=O)C(=O)N(Cc2ccc(F)c(Cl)c2)CC1"
category_label = "F"

[[record]]
compound = "O=C1c2c(c3n(c(=O)c2O)[C@@H](C2CC2)N(C2CC2)C3=O)CCN1Cc1ccc(F)c(Cl)c1"
category_label = "T"


Data request: I wonder whether C[C@H](O)CN1C(=O)c2c3c(c(O)c(=O)n2[C@@]12CC[C@H]1C[C@H]12)C(=O)N(Cc1ccc(F)c(Cl)c1)CC3 has half-life below 10 h. Can you tell?
Data returned: T

Data request: Quick check: half-life of N#Cc1cccc2c1[C@]1(CC2)NC(=O)c2c3c(c(O)c(=O)n21)C(=O)N(Cc1ccc(F)c(Cl)c1)CC3 under 10 h?
Data returned: F

Data request: Below 10 h on half-life? Entry O=C1c2c(c3n(c(=O)c2O)C2(CCC4CC42)N(CCN2C(=O)CCC2=O)C3=O)CCN1Cc1ccc(F)c(Cl)c1 (stereo not given)
Data returned: T

====

Test system: Human immunodeficiency virus type 1 integrase (Human immunodeficiency virus 1), Q7ZJM1 [E92Q]
MEASUREMENT_DESCRIPTION: Inhibition of HIV-1 integrase E92Q mutant strand transfer activity assessed as reduction in viral replication
Think of 100 nM as a floor: if IP stands on it or above, it is true; beneath it, false.

[[record]]
compound = "O=C1N[C@]2(CC[C@H]3C[C@H]32)n2c1c1c(c(O)c2=O)C(=O)N(Cc2ccc(F)c(Cl)c2)CC1"
category_label = "true"


Data request: Could you tell me if the measured IP of O=C1c2c(c3n(c(=O)c2O)[C@@H](C2CC2)N(C2CC2)C3=O)CCN1Cc1ccc(F)c(Cl)c1 reaches 100 nM or more?
Data returned: true

Data request: Decide: is the reported value of IP for C[C@H](O)CN1C(=O)c2c3c(c(O)c(=O)n2[C@@]12CC[C@H]1C[C@H]12)C(=O)N(Cc1ccc(F)c(Cl)c1)CC3 equal to or greater than 100 nM?
Data returned: false

Data request: Say whether O=C1c2c(c3n(c(=O)c2O)C2(CCC4CC42)N(CCN2C(=O)CCC2=O)C3=O)CCN1Cc1ccc(F)c(Cl)c1 (stereo not given) shows IP of 100 nM or more.
Data returned: false

Data request: Hello, I need to know if N#Cc1cccc2c1[C@]1(CC2)NC(=O)c2c3c(c(O)c(=O)n21)C(=O)N(Cc1ccc(F)c(Cl)c1)CC3 has measured IP not below 100 nM. Thanks!
Data returned: false

====

Tested on: Human immunodeficiency virus 1
MEASUREMENT_DESCRIPTION: Inhibition of wild-type HIV-1 integrase strand transfer activity assessed as reduction in viral replication in presence of 10% normal human serum
The entries below come with measured IP values attached.
// return numeric value only (unit: nM, not printed)

Record excerpt, results attached:
[[record]]
compound = "Cc1cccc2c1C1(CC2)NC(=O)c2c3c(c(O)c(=O)n21)C(=O)N(Cc1ccc(F)c(Cl)c1)CC3 (racemic)"
reported_measurement = 37

[[record]]
compound = "CC1CCC2(C1)NC(=O)c1c3c(c(O)c(=O)n12)C(=O)N(Cc1ccc(F)c(Cl)c1)CC3 (racemic)"
reported_measurement = 110

[[record]]
compound = "O=C1NC2(Cc3ccccc3C2)n2c1c1c(c(O)c2=O)C(=O)N(Cc2ccc(F)c(Cl)c2)CC1"
reported_measurement = 620


Data request: Look up IP for this compound: O=C1NC(C2CCC2)n2c1c1c(c(O)c2=O)C(=O)N(Cc2ccc(F)c(Cl)c2)CC1 (racemic)
Data returned: 8340

Data request: What value of IP has been reported for the following compound? O=C1c2c(c3n(c(=O)c2O)[C@@H](C2CC2)N(C2CC2)C3=O)CCN1Cc1ccc(F)c(Cl)c1
Data returned: 95

Data request: Dear colleague, I am looking for the recorded IP of the following compound: N#Cc1cccc2c1[C@]1(CC2)NC(=O)c2c3c(c(O)c(=O)n21)C(=O)N(Cc1ccc(F)c(Cl)c1)CC3
Data returned: 4

Data request: // query IP value for entry O=C1NC2(CCCC2)n2c1c1c(c(O)c2=O)C(=O)N(Cc2ccc(F)c(Cl)c2)CC1
Data returned: 100

====

In this section, each of the molecules is paired with its reported log10 of IP.
System: Human immunodeficiency virus type 1 integrase (Human immunodeficiency virus 1), Q7ZJM1 [N155H]
MEASUREMENT_DESCRIPTION: Inhibition of HIV-1 integrase N155H mutant strand transfer activity assessed as reduction viral replication
Please interpret these as log10 of IP where IP is in nM.

[[record]]
molecule = "O=C1c2c(c3n(c(=O)c2O)[C@@H](C2CC2)N(C2CC2)C3=O)CCN1Cc1ccc(F)c(Cl)c1"
reported_measurement = 2.43

[[record]]
molecule = "O=C1c2c(c3n(c(=O)c2O)C2(CCC4CC42)N(CCN2C(=O)CCC2=O)C3=O)CCN1Cc1ccc(F)c(Cl)c1 (stereo not given)"
reported_measurement = 0.90

[[record]]
molecule = "O=C1N[C@]2(CC[C@H]3C[C@H]32)n2c1c1c(c(O)c2=O)C(=O)N(Cc2ccc(F)c(Cl)c2)CC1"
reported_measurement = 1.92


Data request: Requested field: log10 of IP. Item: C[C@H](O)CN1C(=O)c2c3c(c(O)c(=O)n2[C@@]12CC[C@H]1C[C@H]12)C(=O)N(Cc1ccc(F)c(Cl)c1)CC3
Data returned: 1.04

Data request: Please look up its log10 of IP: N#Cc1cccc2c1[C@]1(CC2)NC(=O)c2c3c(c(O)c(=O)n21)C(=O)N(Cc1ccc(F)c(Cl)c1)CC3
Data returned: 1.11
